Measured values drawn from patent US7709482B2 for this set.

Quick list: IC50 per entry.
- ASSAY_SYSTEM: Axl (Homo sapiens)
- Construct: endogenous in cells; host or cells: HeLa cells
- ASSAY_DETAILS: Phospho-Akt In-Cell Western Assay (inhibition of Axl activity after Axl-antibody cross-linking)
- Type: cell-based
- CONDITIONS: Hela cells, phospho-Akt chemiluminescence normalized to relative cell number; compounds of formula (Ia), Table 1; read-out: IC50

CC1CN(c2ccc(Nc3nc(N)n(-c4cc5c(nn4)-c4ccccc4CCC5)n3)cc2)CC(C)N1 (stereo not drawn)	< 1000 nM

Problem: Please look up its IC50: CC1CCN(C2CCN(c3ccc(Nc4nc(N)n(-c5cc6c(nn5)-c5ccccc5CCC6)n4)cc3F)CC2)CC1
Solution: < 1000 nM

Problem: Another: CN1CCN(c2ccc(Nc3nc(N)n(-c4cc5c(nn4)-c4ccccc4CCC5)n3)cn2)CC1
Solution: < 1000 nM

Problem: Now this one: Nc1ccc(-c2ccc(Nc3nc(N)n(-c4cc5c(nn4)-c4ccccc4CCC5)n3)cn2)cn1
Solution: > 20000 nM

Problem: Item: CN1CCC(c2ccc(Nc3nc(N)n(-c4cc5c(nn4)-c4ccccc4CCC5)n3)cc2)CC1
Solution: < 1000 nM

Problem: Input Nc1nc(Nc2ccc(N3CCCCC(N4CCCC4)C3)c(F)c2)nn1-c1cc2c(nn1)-c1ccccc1CCC2 (stereo not drawn)
Solution: < 1000 nM

----------
- ASSAY_SYSTEM: Axl (Homo sapiens, UniProt P30530)
- Construct: endogenous in cells; host or cells: HeLa cells
- Sequence (P30530 26-894): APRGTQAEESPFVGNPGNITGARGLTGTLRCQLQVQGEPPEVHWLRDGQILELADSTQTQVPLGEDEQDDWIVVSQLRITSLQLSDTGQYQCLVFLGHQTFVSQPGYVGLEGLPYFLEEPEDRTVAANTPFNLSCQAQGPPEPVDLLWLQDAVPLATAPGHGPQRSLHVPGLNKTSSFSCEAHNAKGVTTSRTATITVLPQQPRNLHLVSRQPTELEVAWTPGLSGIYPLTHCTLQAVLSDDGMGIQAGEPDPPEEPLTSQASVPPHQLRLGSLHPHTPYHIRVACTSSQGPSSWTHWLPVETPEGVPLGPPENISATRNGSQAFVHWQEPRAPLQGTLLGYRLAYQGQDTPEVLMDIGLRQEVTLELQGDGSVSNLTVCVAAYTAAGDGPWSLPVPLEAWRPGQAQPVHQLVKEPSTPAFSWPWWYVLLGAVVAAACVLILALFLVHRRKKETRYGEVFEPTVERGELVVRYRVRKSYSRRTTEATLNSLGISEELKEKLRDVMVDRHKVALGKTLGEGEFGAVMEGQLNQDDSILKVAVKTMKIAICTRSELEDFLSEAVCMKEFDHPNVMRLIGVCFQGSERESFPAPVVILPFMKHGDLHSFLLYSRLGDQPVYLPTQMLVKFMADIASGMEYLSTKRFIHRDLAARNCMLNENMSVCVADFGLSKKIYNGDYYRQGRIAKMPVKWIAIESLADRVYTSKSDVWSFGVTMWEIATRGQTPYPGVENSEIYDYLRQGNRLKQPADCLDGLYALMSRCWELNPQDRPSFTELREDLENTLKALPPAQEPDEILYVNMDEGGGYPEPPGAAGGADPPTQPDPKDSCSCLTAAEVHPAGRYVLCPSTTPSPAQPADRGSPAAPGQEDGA
- ASSAY_DETAILS: Phospho-Akt In-Cell Western Assay (inhibition of Axl activity after Axl-antibody cross-linking)
- Format: cell-based
- CONDITIONS: Hela cells, phospho-Akt chemiluminescence normalized to relative cell number; compounds of formula (Ib), Table 2; read-out: IC50
RECORDED_ENDPOINT: IC50

Here's what some known entries look like.
Nc1nc(Nc2ccc(CN3CCC(N4CCCC4)CC3)cc2)n(-c2cc3c(nn2)-c2ccccc2CCC3)n1	< 1 µM
Nc1nc(Nc2ccc(N3CCC(N4CCCC4)C3)c(F)c2)n(-c2cc3c(nn2)-c2ccccc2CCC3)n1 (stereo not shown)	1 to 10 µM
CN1CCC(N2CCN(c3ccc(Nc4nc(N)nn4-c4cc5c(nn4)-c4ccccc4CCC5)cc3F)CC2)CC1	1 to 10 µM
Cc1cc(Nc2nc(N)nn2-c2cc3c(nn2)-c2ccccc2CCC3)ccc1N1CCC(N2CCN(C)CC2)CC1	> 20 µM
CC1CN(c2ccc(Nc3nc(N)nn3-c3cc4c(nn3)-c3ccccc3CCC4)cc2)CC(C)N1 (stereo not shown)	< 1 µM
Nc1nc(Nc2ccc(N3CCC(N4CCCC4)CC3)cc2)n(-c2cc3c(nn2)-c2ccccc2CCC3)n1	1 to 10 µM

Continue with the compound presented below.
Problem: Please state recorded IC50 (tested on Axl (Homo sapiens, UniProt P30530)) of Nc1nc(Nc2ccc(CC3C(=O)Nc4ccc(F)cc43)cc2)n(-c2cc3c(nn2)-c2ccccc2CCC3)n1 (stereo not shown)
Solution: > 20 µM

----------
Reported IC50 values are given for each entry in this list.
- ASSAY_SYSTEM: Axl (Homo sapiens)
- Construct: endogenous in cells; host or cells: HeLa cells
- ASSAY_DETAILS: Phospho-Akt In-Cell Western Assay (inhibition of Axl activity after Axl-antibody cross-linking)
- Type: cell-based
- CONDITIONS: Hela cells, phospho-Akt chemiluminescence normalized to relative cell number; compounds of formula (Ia), Table 1; read-out: IC50

CC(C)N1CCN(C2CCN(c3ccc(Nc4nc(N)n(-c5cc6c(nn5)-c5ccccc5CCC6)n4)cc3F)CC2)CC1	< 1000 nM
Nc1nc(Nc2ccc(N3CCCN(C4CCCC4)CC3)nc2)nn1-c1cc2c(nn1)-c1ccccc1CCC2	< 1000 nM
Nc1nc(Nc2ccc(CN3CCC(N4CCCC4)CC3)cc2)nn1-c1cc2c(nn1)-c1ccccc1CCC2	< 1000 nM

Problem: Give its IC50 value. Item: CS(=O)(=O)Nc1cccc(-c2ccc(Nc3nc(N)n(-c4cc5c(nn4)-c4ccccc4CCC5)n3)cn2)c1
Solution: > 20000 nM

----------
- ASSAY_SYSTEM: Axl (Homo sapiens)
- Construct: endogenous in cells; host or cells: HeLa cells
- ASSAY_DETAILS: Phospho-Akt In-Cell Western Assay (inhibition of Axl activity after Axl-antibody cross-linking)
- Assay type: cell-based
- CONDITIONS: Hela cells, phospho-Akt chemiluminescence normalized to relative cell number; compounds of formula (Ia), Table 1; read-out: IC50
The compounds listed here are annotated with their IC50.

Completed entries (count: 4):
CN1CCN(Cc2ccc(Nc3nc(N)n(-c4cc5c(nn4)-c4ccccc4CCC5)n3)cc2)CC1	< 1 µM
CN1CCN(c2ccc(Nc3nc(N)n(-c4cc5c(nn4)-c4ccccc4CCC5)n3)cc2F)CC1c1ccccc1 (centres unmarked)	> 20 µM
Nc1nc(Nc2ccc(N3CCN(C4CCCCC4)CC3)c(F)c2)nn1-c1cc2c(nn1)-c1cc(F)ccc1CCC2	10 to 20 µM
CC(C)(C)OC(=O)NC1CCN(c2ccc(Nc3nc(N)n(-c4cc5c(nn4)-c4ccccc4CCC5)n3)cc2F)CC1	1 to 10 µM

Here is the next item to consider.
Problem: Find IC50 (Axl (Homo sapiens)) for the entry COc1ccc2c(c1)CCCc1cc(-n3nc(Nc4ccc(N5CCN(C6CCCCC6)CC5)c(F)c4)nc3N)nnc1-2
Solution: > 20 µM

----------
# pIC50 annotations
- ASSAY_SYSTEM: Axl (Homo sapiens, UniProt P30530)
- Construct: endogenous in cells; host or cells: HeLa cells
- ASSAY_DETAILS: Phospho-Akt In-Cell Western Assay (inhibition of Axl activity after Axl-antibody cross-linking)
- Format: cell-based
- CONDITIONS: Hela cells, phospho-Akt chemiluminescence normalized to relative cell number; compounds of formula (Ia), Table 1; read-out: IC50
- Method: The compounds of the invention were tested in the following assay for their ability to inhibit Axl activity. Phospho-Akt In-Cell Western Assay […]
pIC50: −log10 of the molar value.

Worked cases, pIC50 given:
Nc1nc(Nc2ccc(C(=O)N3CCC(N4CCCC4)CC3)cc2)nn1-c1cc2c(nn1)-c1ccccc1CCC2 [Compound 22]	> 6.00
CN1CCN(c2ccc(Nc3nc(N)n(-c4cc5c(nn4)-c4ccccc4N(C)CC5)n3)cc2)CC1 [Compound 41]	5.00 to 6.00
CN1CCN(C2CCN(c3ccc(Nc4nc(N)n(-c5cc6c(nn5)-c5ccccc5CCC6)n4)cn3)CC2)CC1 [Compound 30]	> 6.00

Next:
Problem: Reported pIC50 for Axl (Homo sapiens, UniProt P30530), given CN1CCc2cc(-n3nc(Nc4ccc(N5CCN(C6CCCCC6)CC5)c(F)c4)nc3N)nnc2-c2ccccc21 [Compound 43] ?
Solution: 5.00 to 6.00

----------
IC50 for assorted molecules
- ASSAY_SYSTEM: Axl (Homo sapiens, UniProt P30530)
- Construct: endogenous in cells; host or cells: HeLa cells
- ASSAY_DETAILS: Phospho-Akt In-Cell Western Assay (inhibition of Axl activity after Axl-antibody cross-linking)
- Type: cell-based
- CONDITIONS: Hela cells, phospho-Akt chemiluminescence normalized to relative cell number; compounds of formula (Ib), Table 2; read-out: IC50

CN1CCC(N2CCc3ccc(Nc4nc(N)nn4-c4cc5c(nn4)-c4ccccc4CCC5)cc3C2)CC1	1 to 10 µM
Cc1cc(Nc2nc(N)nn2-c2cc3c(nn2)-c2ccccc2CCC3)cnc1N1CCC(N2CCCC2)CC1	1 to 10 µM
CN(C)Cc1nc2cc(Nc3nc(N)nn3-c3cc4c(nn3)-c3ccccc3CCC4)ccc2[nH]1	> 20 µM
Nc1nc(Nc2ccc(N3CCC(N4CCCC4)CC3)cc2)n(-c2cc3c(nn2)-c2ccccc2SCC3)n1	> 20 µM
Nc1nc(Nc2ccc3c(c2)CC[C@@H](N2CCCC2)CC3)n(-c2cc3c(nn2)-c2ccccc2CCC3)n1	< 1 µM

Problem: Could you share which IC50 value was measured for Nc1nc(Nc2ccc(N3CCC(N4CCOCC4)CC3)c(F)c2)n(-c2cc3c(nn2)-c2ccccc2CCC3)n1 ?
Solution: > 20 µM

Problem: Another molecule to look at: Nc1nc(Nc2ccc3c(c2)CNCC3)n(-c2cc3c(nn2)-c2ccccc2CCC3)n1
Solution: 1 to 10 µM
